- Test system: MM.1S cells
- test name: MTT cytotoxicity assay
- condition summary: Homo sapiens, MM1.S, 48 h, read-out: IC50 (cytotoxicity, MTT)
pIC50: −log10 of the molar value.
experimental readout: pIC50

>>> numeric_readout("O=c1cc(N2CCOCC2)oc2c(-c3ccccc3)cccc12 [LY294002]")
5.14

* * *

- System: MM.1S cells
- test name: MTT cytotoxicity assay
- condition summary: read-out: IC50 (cytotoxicity, MTT); MM.1S, 48 hours, sigmoidal dose-response fit
pIC50: −log10 of the molar value.
experimental readout: pIC50

>>> numeric_readout("N=C(N)NCCC[C@H](NC(=O)CCC(=O)OC[N+]1(c2cc(=O)c3cccc(-c4ccccc4)c3o2)CCOCC1)C(=O)NCC(=O)N[C@@H](CC(=O)O)C(=O)N[C@@H](CO)C(=O)[O-]")
5.05
